TARGET_ENTITY: full-length SHP2 (Homo sapiens)
Construct: used for the expression and purification of the full-length SHP2
Sequence (Q06124 whole entry): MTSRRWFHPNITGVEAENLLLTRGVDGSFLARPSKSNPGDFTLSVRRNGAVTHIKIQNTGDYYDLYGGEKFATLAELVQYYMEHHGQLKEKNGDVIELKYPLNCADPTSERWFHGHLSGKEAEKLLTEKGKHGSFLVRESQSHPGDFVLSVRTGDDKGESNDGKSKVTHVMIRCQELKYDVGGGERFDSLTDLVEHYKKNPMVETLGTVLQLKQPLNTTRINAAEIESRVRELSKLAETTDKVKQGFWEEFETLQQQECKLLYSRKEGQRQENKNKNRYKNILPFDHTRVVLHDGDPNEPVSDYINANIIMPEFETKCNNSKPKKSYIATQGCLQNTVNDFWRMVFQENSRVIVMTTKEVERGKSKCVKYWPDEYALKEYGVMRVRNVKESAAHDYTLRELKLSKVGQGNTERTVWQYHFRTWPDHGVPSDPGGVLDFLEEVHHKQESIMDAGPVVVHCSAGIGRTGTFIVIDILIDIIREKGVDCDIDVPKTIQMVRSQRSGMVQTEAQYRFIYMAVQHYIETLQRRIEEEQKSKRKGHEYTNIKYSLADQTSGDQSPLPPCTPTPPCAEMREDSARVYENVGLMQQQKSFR
ASSAY_REMARKS: full-length SHP2 inhibition assay (DiFMUP, pIRS-1 activated)
DETAILS: activating peptide p-IRS-1 supplemented; read-out: IC50 on full length SHP2 (SHP2-FL)
METRIC_NAME: pIC50
# pIC50 is unitless: minus log10 of the molar concentration; print number only

Reported pIC50, molecule C/C1=C\CCC2=C[C@@H](OC2=O)c2c(C)coc2C1 [LIN, linderalactone] : ____
5.70
